B1: F1*; the commonest letter at each place (parent)
chain: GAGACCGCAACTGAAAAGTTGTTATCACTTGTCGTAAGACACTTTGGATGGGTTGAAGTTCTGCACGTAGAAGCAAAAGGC

# Variants of: B1
# assay.info: fraction ligated after 30 min (ligated reads / total reads); higher = more ligase activity
# condition.summary: with F1*sub RNA substrate (template-directed ligation), 42 °C
Please respond with reported fraction ligated for every item in the list.
Numbers only.

Would you please look over these solved cases?
GAGACCGCAACTGAAAAGTTGTGATCACTTATCGTAAGACACTTTGGATGGGTTGAAGTTCTGCACGTAGAAGCAAAAGGC [T23G G31A]	0.849
GAGACCGCAACTGAAAAGTTGTTATCACTTGCCGTAAGACACTTTGGACGGGTTGAAGTTCTGCACGTAGAAGCAAAAGGC [T32C T49C]	0.193
GAGACCGCAACTGAAAAGTTGTGATCACTTGTCGTAAGACACTTTGGATTGGTTGAAGTTCTGCACGTAGAAGCAAAAGGC [T23G G50T]	0.728
GAGACCGCAACTGAAAAGTTGTTATCACATGTCGTAAGCCACTTTGGATGGGTTGAAGTTCTGCACGTAGAAGCAAAAGGC [T29A A39C]	0.82
GAGACCGCAACTGAAAAGTTGTTATCACTTCTCGTAAGAAACTTTGGATGGGTTGAAGTTCTGCACGTAGAAGCAAAAGGC [G31C C40A]	0.793
GAGACCGCAACTGAAAAGTTGTGATCACTTGTCGTAAGACACTTTGGTTGGGTTGAAGTTCTGCACGTAGAAGCAAAAGGC [T23G A48T]	0.781
GAGACCGCAACTGAAAAGTTGTTATCCCTTGTCGTAAGACCCTTTGGATGGGTTGAAGTTCTGCACGTAGAAGCAAAAGGC [A27C A41C]	0.782
GAGACCGCAACTGAAAAGTTGTTATCACTTGTCGTAAGACTCTTCGGATGGGTTGAAGTTCTGCACGTAGAAGCAAAAGGC [A41T T45C]	0.428

Respectfully, I request fraction ligated for each entry included below.
1. GAGACCGCAACTGAAAAGTTGTTATCACTTGTCGTAAAACACTTTGGACGGGTTGAAGTTCTGCACGTAGAAGCAAAAGGC [G38A T49C]
2. GAGACCGCAACTGAAAAGTTGTTATCACTTGTCGTACGACACTTTGGATGGGTTGTAGTTCTGCACGTAGAAGCAAAAGGC [A37C A56T]
3. GAGACCGCAACTGAAAAGTTGTTATCAATTGTCGTAAGACACTTGGGATGGGTTGAAGTTCTGCACGTAGAAGCAAAAGGC [C28A T45G]
4. GAGACCGCAACTGAAAAGTTGTTATCACTTGTCGTAAGACACCTTGGGTGGGTTGAAGTTCTGCACGTAGAAGCAAAAGGC [T43C A48G]
5. GAGACCGCAACTGAAAAGTTGTTATCACTTGTCCTAAGACACTTTGGACGGGTTGAAGTTCTGCACGTAGAAGCAAAAGGC [G34C T49C]

1. 0.245
2. 0.804
3. 0.0334
4. 0.764
5. 0.0345

Respectfully, I request fraction ligated for each entry included below.
1. GAGACCGCAACTGAAAAGTTGTTATCACTTGTCATAAGACACTTTGGAGGGGTTGAAGTTCTGCACGTAGAAGCAAAAGGC [G34A T49G]
2. GAGACCGCAACTGAAAAGTTGTTATCACTTGTCGTAAGACACTTTGGATGGGTCGAAGTTCTGCACGTAGAAGCAAAAGGC [T54C]

[0.819, 0.846]
